- systemName: Fatty acid synthase (Homo sapiens, UniProt P49327)
- Sequence (P49327 whole entry, the tested form may be a part): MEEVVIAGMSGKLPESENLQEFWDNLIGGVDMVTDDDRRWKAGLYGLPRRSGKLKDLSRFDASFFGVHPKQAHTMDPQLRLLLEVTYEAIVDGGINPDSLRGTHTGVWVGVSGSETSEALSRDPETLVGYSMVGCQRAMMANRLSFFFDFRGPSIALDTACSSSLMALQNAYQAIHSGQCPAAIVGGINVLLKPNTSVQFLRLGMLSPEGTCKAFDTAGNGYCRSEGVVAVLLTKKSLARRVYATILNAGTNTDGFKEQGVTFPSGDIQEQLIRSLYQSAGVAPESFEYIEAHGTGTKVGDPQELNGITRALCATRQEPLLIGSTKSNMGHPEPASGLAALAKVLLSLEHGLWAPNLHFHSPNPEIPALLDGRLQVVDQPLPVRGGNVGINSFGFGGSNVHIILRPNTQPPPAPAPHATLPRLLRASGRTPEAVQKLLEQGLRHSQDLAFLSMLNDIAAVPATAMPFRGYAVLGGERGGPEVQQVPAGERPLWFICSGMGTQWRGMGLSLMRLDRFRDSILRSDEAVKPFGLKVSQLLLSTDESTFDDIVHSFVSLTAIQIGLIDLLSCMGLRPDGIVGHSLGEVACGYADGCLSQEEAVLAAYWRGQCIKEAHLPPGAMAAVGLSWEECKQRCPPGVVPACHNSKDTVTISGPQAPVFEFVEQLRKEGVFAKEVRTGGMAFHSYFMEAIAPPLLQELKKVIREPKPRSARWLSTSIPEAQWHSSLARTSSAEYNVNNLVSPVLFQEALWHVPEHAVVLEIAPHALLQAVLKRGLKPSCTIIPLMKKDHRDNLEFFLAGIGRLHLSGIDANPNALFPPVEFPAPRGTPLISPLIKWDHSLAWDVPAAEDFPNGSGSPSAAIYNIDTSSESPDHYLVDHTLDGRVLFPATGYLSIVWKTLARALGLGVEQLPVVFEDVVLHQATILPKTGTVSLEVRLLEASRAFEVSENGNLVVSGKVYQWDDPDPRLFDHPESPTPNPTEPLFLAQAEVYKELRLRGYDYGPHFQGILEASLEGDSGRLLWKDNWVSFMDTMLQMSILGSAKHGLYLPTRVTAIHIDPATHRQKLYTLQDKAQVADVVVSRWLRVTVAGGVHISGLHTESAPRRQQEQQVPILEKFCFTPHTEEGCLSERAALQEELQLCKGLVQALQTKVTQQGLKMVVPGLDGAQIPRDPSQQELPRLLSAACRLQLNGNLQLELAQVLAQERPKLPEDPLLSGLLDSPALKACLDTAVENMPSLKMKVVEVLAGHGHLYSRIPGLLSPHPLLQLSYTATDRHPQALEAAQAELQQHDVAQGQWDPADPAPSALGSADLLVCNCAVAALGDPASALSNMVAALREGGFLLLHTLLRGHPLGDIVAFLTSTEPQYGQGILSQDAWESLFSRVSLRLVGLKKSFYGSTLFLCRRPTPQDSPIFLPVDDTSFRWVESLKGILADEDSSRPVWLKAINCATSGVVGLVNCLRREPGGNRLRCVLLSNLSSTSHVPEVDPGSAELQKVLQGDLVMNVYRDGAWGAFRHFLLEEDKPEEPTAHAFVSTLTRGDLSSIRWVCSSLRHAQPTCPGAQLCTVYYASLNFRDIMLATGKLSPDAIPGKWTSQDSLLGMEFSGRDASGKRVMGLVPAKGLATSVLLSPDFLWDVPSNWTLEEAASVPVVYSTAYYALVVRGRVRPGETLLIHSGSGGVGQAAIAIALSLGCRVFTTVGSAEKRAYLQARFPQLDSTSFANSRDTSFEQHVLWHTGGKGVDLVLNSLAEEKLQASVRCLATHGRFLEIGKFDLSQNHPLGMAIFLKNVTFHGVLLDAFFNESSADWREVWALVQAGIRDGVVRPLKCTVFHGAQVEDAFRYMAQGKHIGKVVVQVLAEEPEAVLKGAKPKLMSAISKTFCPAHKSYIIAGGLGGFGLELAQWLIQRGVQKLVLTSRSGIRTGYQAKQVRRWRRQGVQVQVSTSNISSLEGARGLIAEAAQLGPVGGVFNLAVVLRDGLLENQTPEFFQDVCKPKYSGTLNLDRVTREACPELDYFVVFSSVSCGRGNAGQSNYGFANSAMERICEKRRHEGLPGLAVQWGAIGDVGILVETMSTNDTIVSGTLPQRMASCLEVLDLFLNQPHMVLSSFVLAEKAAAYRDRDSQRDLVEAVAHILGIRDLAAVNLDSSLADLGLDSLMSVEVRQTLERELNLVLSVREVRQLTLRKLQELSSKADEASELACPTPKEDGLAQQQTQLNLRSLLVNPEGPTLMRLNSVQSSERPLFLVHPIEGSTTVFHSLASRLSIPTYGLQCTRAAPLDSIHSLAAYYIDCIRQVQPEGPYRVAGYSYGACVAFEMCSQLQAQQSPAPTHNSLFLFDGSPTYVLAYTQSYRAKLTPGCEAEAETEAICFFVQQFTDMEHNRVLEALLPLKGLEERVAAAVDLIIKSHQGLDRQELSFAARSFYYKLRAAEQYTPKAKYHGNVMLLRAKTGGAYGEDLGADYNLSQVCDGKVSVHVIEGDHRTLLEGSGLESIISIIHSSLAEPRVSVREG
- assay: FAS thioesterase domain inhibitors, dose response, biochemical, endpoint fluorescence intensity, uHTS hits (AID 624327);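 also: fluorescence from hydrolysis of an O-methyl fluorescein acyl ester substrate by the enzyme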
- Type: functional
The source made the active and inactive calls.
Lab note: assign the record to one of active, inactive

Ask | Would you mind telling me which call this test gave Fc1nc(F)c(F)c(NCCCNc2c(F)c(F)nc(F)c2F)c1F ?
Reply | inactive

Ask | Now give it for CC(=O)c1cccc2c1OC(C)C(=O)N2Cc1ccc(Cl)cc1 (stereo unspecified) too.
Reply | active

Ask | Now give it for Cc1ccc(S(=O)(=O)c2nnn3c2nc(NCCCN2CCCC2=O)c2ccccc23)cc1C too.
Reply | active

Ask | Now give it for O=C1NC(=S)S/C1=C\c1cc2ccccc2nc1N1CCCCC1 too.
Reply | inactive

Ask | Now give it for CCCC(=O)OCCNc1cc(Sc2nc3ccccc3[nH]2)c2nonc2c1[N+](=O)[O-] too.
Reply | active

Ask | Now give it for COc1cccc(NC(=O)CN2C(=O)CSc3ccc(S(=O)(=O)N4CCCCC4)cc32)c1 too.
Reply | active

* * *

- systemName: RNA-binding protein pos-1 (Caenorhabditis elegans)
- Sequence (G5EF15 whole entry): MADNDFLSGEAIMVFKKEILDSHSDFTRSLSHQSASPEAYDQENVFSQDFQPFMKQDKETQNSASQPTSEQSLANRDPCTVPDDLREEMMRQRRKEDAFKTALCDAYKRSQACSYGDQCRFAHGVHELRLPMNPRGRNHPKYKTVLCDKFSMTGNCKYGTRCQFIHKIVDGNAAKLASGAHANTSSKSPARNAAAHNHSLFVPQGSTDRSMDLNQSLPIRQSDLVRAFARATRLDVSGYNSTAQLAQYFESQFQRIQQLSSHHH
- assay: inhibitors of POS-1/mex-3 RNA binding, dose response, biochemical, fluorescence polarization (AID 1964);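 also: purified POS-1 fused to maltose binding protein made in E. coli; potency of compounds blocking POS-1 binding to fluorescent RNA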
Active and inactive are the calls of the source.
So I've got a bunch of compounds here, and I need their EC50 values.

Ask | # EC50 lookup, item CC(=O)NC1=NC(=O)/C(=C/c2cc(C)n(-c3cccc(C(=O)O)c3)c2C)S1
Reply | > 300 µM (not active)

Ask | Now give it for CCn1c(SCC(=O)Nc2cc(C)on2)nnc1-c1ccc(OC)cc1 too.
Reply | > 300 µM (not active)

Ask | Now give it for CCN(CC)c1ccc(/C=N/C(C#N)=C(\N)C#N)cc1 too.
Reply | 281 µM (active)

Ask | Now give it for Cc1ccccc1NS(=O)(=O)c1cc(C(=O)N2CCCC2)ccc1C too.
Reply | > 300 µM (not active)

Ask | Now give it for COCc1cc(O)n2nc(-c3cccs3)cc2n1 too.
Reply | > 300 µM (not active)

Ask | Now give it for CN1C(=O)C(=Cc2cn(CC(=O)N3CCCCC3)c3ccccc23)C(=O)N(C)C1=O too.
Reply | > 300 µM (not active)

Ask | Now give it for C=CCN1C(=O)NC(=O)/C(=C/c2ccc(OCC(=O)Nc3ccc(C)cc3)cc2)C1=O too.
Reply | > 300 µM (not active)

Ask | Now give it for Cc1ccc(C2c3sc(=O)[nH]c3SC3C(=O)NC(=O)C32)cc1 (centres undefined) too.
Reply | > 300 µM (inconclusive)

Ask | Now give it for O=C(O)Cn1cc(/C=C2\C(=O)NC(=O)N(c3ccc(F)cc3)C2=O)c2ccccc21 too.
Reply | 9.27 µM (active)
